- Tested on: S. aureus CIP 103428
- methodSummary: MIC microdilution (Table I-1)
- Format: cell-based, Staphylococcus aureus
- conditionInfo: Staphylococcus aureus, CIP103428, read after 18 hours, read-out: MIC
Would you kindly list MIC for each of these compounds?

Quickly give me recorded MIC for CC(C)(C)OC(=O)NCC(NC(=O)C(=O)c1c[nH]c2ccc(Br)cc12)c1c[nH]c2ccc(Br)cc12 (stereo not shown) [Compound 4]
1.6 µg/mL

Write down MIC measured for item CC(C)(C)OC(=O)NCC(NC(=O)C(=O)c1c[nH]c2cc(Br)ccc12)c1c[nH]c2ccccc12 (stereo not shown) [Compound 3]
4 µg/mL

For the compound O=C(C(=O)N1CCCCC1c1c[nH]c2ccc(Br)cc12)c1c[nH]c2ccc(Br)cc12 (stereo not shown) [Compound 6d] , give its reported MIC.
> 128 µg/mL

Identify measured MIC corresponding to CC(C)(C)OC(=O)N1CCN(C(=O)C(=O)c2c[nH]c3ccccc23)C(c2c[nH]c3ccccc23)C1 (stereo not shown) [Compound 6c]
> 128 µg/mL

Please give the documented MIC of O=C(C(=O)N1CCCCC1c1c[nH]c2ccccc12)c1c[nH]c2ccccc12 (stereo not shown) [Compound 6a]
> 128 µg/mL

Identify MIC associated with the compound CC(C)(C)OC(=O)N1CCN(C(=O)C(=O)c2c[nH]c3ccc(Br)cc23)C(c2c[nH]c3ccc(Br)cc23)C1 (stereo not shown) [Compound 6f]
> 128 µg/mL

Complete the entry with MIC for CC(C)(C)OC(=O)NCC(NC(=O)C(=O)c1c[nH]c2ccccc12)c1c[nH]c2ccccc12 (stereo not shown) [Compound 2]
> 128 µg/mL

Tell us which MIC value is on record for CC(NC(=O)C(=O)c1c[nH]c2ccc(Br)cc12)c1c[nH]c2ccc(Br)cc12 (stereo not shown) [Compound 5]
1 µg/mL

Kindly indicate its recorded MIC. Item: CC(C)(C)OC(=O)NCC(NC(=O)C(F)(F)F)c1c[nH]c2ccc(Br)cc12 (stereo not shown) [Compound 13]
64 µg/mL

Specify measured MIC for O=C(C(=O)N1CCOCC1c1c[nH]c2ccccc12)c1c[nH]c2ccccc12 (stereo not shown) [Compound 6b] .
> 128 µg/mL

* * *

- Tested on: MRC5 (human lung fibroblast)
- methodSummary: In vitro cytotoxicity
- Type: cell-based
- conditionInfo: MRC5, 10^−6 M, read-out: % of cellular growth inhibition (converted)
Task for the reader: assign each of the following compounds its reported inhibition at 1 µM.
Dear colleague, please return just the value in %, with no unit written.

Complete the entry with inhibition at 1 µM for CC(C)(C)OC(=O)NCC(NC(=O)C(=O)c1c[nH]c2ccccc12)c1c[nH]c2ccccc12 (stereo not drawn)
10

State its inhibition at 1 µM for this compound: CC(NC(=O)C(=O)c1c[nH]c2ccc(Br)cc12)c1c[nH]c2ccc(Br)cc12 (stereo not drawn)
6

For O=C(C(=O)N1CCCCC1c1c[nH]c2ccccc12)c1c[nH]c2ccccc12 (stereo not drawn) , write its inhibition at 1 µM.
0

* * *

- System: S. pyogenes (group A) CIP 104226
- methodSummary: MIC microdilution (Table I-1)
- Format: cell-based
- conditionInfo: Streptococcus pyogenes, CIP104226, read after 18 hours, read-out: MIC
valueKind: MIC

// Input: CC(C)(C)OC(=O)N1CCN(C(=O)C(=O)c2c[nH]c3ccc(Br)cc23)C(c2c[nH]c3ccc(Br)cc23)C1 (stereo not drawn) . Output its MIC only.
> 128 µg/mL

Fill in MIC for record O=C(C(=O)N1CCCCC1c1c[nH]c2ccccc12)c1c[nH]c2ccccc12 (stereo not drawn)
> 128 µg/mL

Please give the documented MIC of CC(C)(C)OC(=O)NCC(NC(=O)C(=O)c1c[nH]c2ccccc12)c1c[nH]c2ccccc12 (stereo not drawn)
> 128 µg/mL

Assign MIC to the following record: CC(NC(=O)C(=O)c1c[nH]c2ccc(Br)cc12)c1c[nH]c2ccc(Br)cc12 (stereo not drawn)
32 µg/mL

In one line, give reported MIC of the entry CC(C)(C)OC(=O)NCC(NC(=O)C(F)(F)F)c1c[nH]c2ccc(Br)cc12 (stereo not drawn) .
128 µg/mL

Give me measured MIC, please, for this compound: O=C(C(=O)N1CCOCC1c1c[nH]c2ccccc12)c1c[nH]c2ccccc12 (stereo not drawn)
> 128 µg/mL

Consider the compound CC(C)(C)OC(=O)NCC(NC(=O)C(=O)c1c[nH]c2cc(Br)ccc12)c1c[nH]c2ccccc12 (stereo not drawn) . State its measured MIC.
128 µg/mL

Dear colleague, please send me the reported MIC for CC(C)(C)OC(=O)N1CCN(C(=O)C(=O)c2c[nH]c3ccccc23)C(c2c[nH]c3ccccc23)C1 (stereo not drawn) when you can.
> 128 µg/mL

Give the reported value of MIC for this record: O=C(C(=O)N1CCCCC1c1c[nH]c2ccc(Br)cc12)c1c[nH]c2ccc(Br)cc12 (stereo not drawn)
> 128 µg/mL
